- Target entity: Sushi domains (SD1/2) protein of the GABAB1a (GB1a) subunit, recombinant
- Sequence (Q9Z0U4 29-158): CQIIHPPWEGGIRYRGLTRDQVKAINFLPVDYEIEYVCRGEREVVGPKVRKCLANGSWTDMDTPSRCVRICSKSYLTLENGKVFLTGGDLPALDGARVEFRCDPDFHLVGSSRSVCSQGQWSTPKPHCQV
- Protocol notes: FP competition
Experimental readout: Ki (nM)
Number only, in nM; omit the unit.

                  binder  readout_unit  quantitative_readout
0  Ac-PWAIVWGPTVSAED-NH2            nM                   341

Respond only with Ki recorded for "Ac-VWWGGADTDYAD-NH2"
60800

Respond only with Ki recorded for "Ac-TETEFIAWGPTGDEDA-NH2"
36

Respond only with Ki recorded for "Ac-FIAWGPTGDED-NH2"
118

Respond only with Ki recorded for "Ac-ADAEEDDSDVWWGGADTDYAD-NH2"
500

Respond only with Ki recorded for "Ac-SQYPWAIVWGPTVSREDG-NH2"
762

Respond only with Ki recorded for "Ac-TETEFIAWG-NH2"
2470

Source of measurements: patent US20260193293A1
